biological target: furin, P09958; experiment: furin cleavage Z-score vs untreated control; higher = more cleavage, active = 3.5 or more, inactive = 1 or less, 8 variable residues between constant flanks; settings: 30 min;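 also: purified furin at 1:10 enzyme:substrate in 50 mM HEPES pH 7.5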
Sequence (P09958 whole entry): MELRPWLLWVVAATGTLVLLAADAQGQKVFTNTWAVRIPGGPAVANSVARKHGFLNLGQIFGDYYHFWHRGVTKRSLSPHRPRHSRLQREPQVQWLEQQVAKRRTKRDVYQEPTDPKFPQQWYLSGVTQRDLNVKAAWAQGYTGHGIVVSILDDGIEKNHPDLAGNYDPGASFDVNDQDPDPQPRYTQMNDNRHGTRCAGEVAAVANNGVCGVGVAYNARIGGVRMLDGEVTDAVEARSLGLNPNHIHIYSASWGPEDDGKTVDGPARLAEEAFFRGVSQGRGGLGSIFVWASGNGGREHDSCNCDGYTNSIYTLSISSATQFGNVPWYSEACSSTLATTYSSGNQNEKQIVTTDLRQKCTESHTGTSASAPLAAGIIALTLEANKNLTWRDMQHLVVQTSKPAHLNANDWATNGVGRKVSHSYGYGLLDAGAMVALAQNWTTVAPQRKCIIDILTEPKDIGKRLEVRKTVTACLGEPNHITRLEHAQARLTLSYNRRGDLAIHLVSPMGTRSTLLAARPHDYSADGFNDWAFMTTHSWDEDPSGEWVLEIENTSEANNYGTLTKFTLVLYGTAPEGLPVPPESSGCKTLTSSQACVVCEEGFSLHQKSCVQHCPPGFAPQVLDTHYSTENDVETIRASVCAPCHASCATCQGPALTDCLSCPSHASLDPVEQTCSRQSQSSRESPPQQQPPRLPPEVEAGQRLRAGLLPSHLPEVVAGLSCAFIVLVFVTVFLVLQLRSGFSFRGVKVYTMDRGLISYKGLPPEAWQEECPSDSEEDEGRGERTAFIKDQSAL
The other results are listed elsewhere or left out. The true hit rate is not given.
Measured furin cleavage Z-score accompanies every entry in the list below.
property-label: furin cleavage Z-score

1) CAHAPTGSGKAGNASASA [HC775] = -0.0524 (inactive)
2) CARARRVTDAAGNASASA [FS-2890] = -0.304 (inactive)
3) CARARRAIAAAGNASASA [FS-3148] = 4.12 (active)
4) CATNPKPQKKAGNASASA [HC162] = -2.33 (inactive)
5) CARARRVLEAAGNASASA [FS-1685] = -0.66 (inactive)
6) CASFARIKKWAGNASASA [FS-717] = 1.88
7) CAEPGREKKSAGNASASA [FS-414] = -0.848 (inactive)

Hey, just so you know, these numbers are from the supplement of paper PMC3545927.
